Assay: qHTS assay for identifying genotoxic compounds that show differential cytotoxicity against isogenic chicken DT40 cell lines with known DNA damage response pathways - Rad54/Ku70 mutant cell line (AID 743015); also: nearly all actives have a fitted effect of over 60% in size; also: potency is read from the fitted curve at half-maximal effect
Conditions: DT40 Rad54/Ku70 mutant viability, CellTiter-Glo, 40 h; series mostly up to 66.8 µM
Excerpt: National Center for Advancing Translational Sciences [NCATS] NIH Chemical Genomics Center [NCGC] U.S. Environmental Protection Agency [EPA] National Institutes of Environmental Health Sciences [NIEHS] National Toxicology Program [NTP] U.S. Food and Drug Administration [FDA] DNA repair pathways play a critical role in cellular homeostasis by repairing DNA damage induced by endogenous processes and xenobiotics. […]
Records with an inconclusive call do not appear. The source made the active and inactive calls. Calls follow the shape of the dose curve; as a rule, active = well fitted cell-killing curve with a large enough effect in the repeat runs; inconclusive = weak or mixed curves; inactive = no such curve, though single readings can be large or run the other way.
PARAMETER_MEASURED: Potency

MOLECULE: O=S1(=O)N=C(O)c2ccccc21
RECORDED_MEASUREMENT: inactive

MOLECULE: CC(C)=CCCC(C)CC=O (stereo not drawn)
RECORDED_MEASUREMENT: inactive

MOLECULE: CCc1nn(C2CCCCC2)c2cc(C3(C#N)CCC(C(=O)O)CC3)ccc12 (stereo not drawn)
RECORDED_MEASUREMENT: 61.1 µM (active)

MOLECULE: CC(=O)O[C@@H]1C(=O)O[C@@H]2[C@H]1OC(=O)[C@@H]2OC(C)=O
RECORDED_MEASUREMENT: 26.6 µM (active)

MOLECULE: c1ccc(OCc2ccc(CCCN3CCOCC3)cc2)cc1
RECORDED_MEASUREMENT: 0.596 µM (active)

Lab note: each molecule below needs its Potency filled in.
1. C=CC(C)(CCC=C(C)C)OC(=O)c1ccccc1 (stereo not drawn)
2. CC1(C)[C@H]2CC[C@]1(C)[C@H](O)C2
3. CCN(CC)CCOc1ccc2c(c1)C(=O)c1cc(OCCN(CC)CC)ccc1-2
4. O=C(O)Cc1sc(-c2ccccc2)nc1-c1ccc(Cl)cc1
5. Cc1ccc(C(=O)C(C)CN2CCCCC2)cc1 (stereo not drawn)
6. COc1ccc2[nH]c(S(=O)Cc3ncc(C)c(OC)c3C)nc2n1 (stereo not drawn)
7. NCCCN(CCO)CCO

["27.3 µM (active)", "inactive", "5.96 µM (active)", "inactive", "26.6 µM (active)", "29.8 µM (active)", "inactive"]

Fill in the blank: the reported Potency of `Cc1cc(NC(=O)C(=O)O)cc(C)c1Oc1ccc(O)c2c1CCC2` is ____.
inactive

* * *

biological target: Peroxisome proliferator-activated receptor gamma (Homo sapiens) (UniProt P37231); experiment: qHTS assay to identify small molecule agonists of the peroxisome proliferator-activated receptor gamma (PPARg) signaling pathway (AID 743094); details: HEK293H PPARg-UAS-bla, beta-lactamase FRET ratio, 17 h; series mostly up to 57 µM
Sequence (P37231 whole entry, looked up): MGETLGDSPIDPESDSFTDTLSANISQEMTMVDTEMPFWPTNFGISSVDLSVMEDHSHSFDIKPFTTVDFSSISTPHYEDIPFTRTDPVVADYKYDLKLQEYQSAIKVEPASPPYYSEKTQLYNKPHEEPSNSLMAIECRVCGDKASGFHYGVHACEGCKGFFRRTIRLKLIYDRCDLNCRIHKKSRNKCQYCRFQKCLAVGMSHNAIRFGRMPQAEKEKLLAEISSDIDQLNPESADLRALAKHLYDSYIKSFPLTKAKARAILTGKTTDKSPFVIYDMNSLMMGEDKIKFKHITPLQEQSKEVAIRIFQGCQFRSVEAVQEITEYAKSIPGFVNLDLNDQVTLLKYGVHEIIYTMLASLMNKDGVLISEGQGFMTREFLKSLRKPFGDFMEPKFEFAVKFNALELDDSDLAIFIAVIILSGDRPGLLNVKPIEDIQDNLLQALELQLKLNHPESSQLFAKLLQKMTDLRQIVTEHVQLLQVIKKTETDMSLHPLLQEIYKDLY
Inconclusive results are not listed. The source made the active and inactive calls. Calls come from the whole dose curve; as a rule, active = well fitted activation curve with a large enough effect in the signal ratio in the repeat runs (not every such curve was filed as active); inconclusive = weak or mixed curves, or effect the other way; inactive = no such curve, though single readings can be large or run the other way; the % refers to the signal ratio.
PARAMETER_MEASURED: outcome

# annotated cases, reported outcome shown
MOLECULE: CN(C)CC[C@@H](c1ccc(Br)cc1)c1ccccn1
RECORDED_MEASUREMENT: inactive
--
MOLECULE: O=c1[nH]cnc2ccccc12
RECORDED_MEASUREMENT: inactive
--
MOLECULE: C=CC[N+]1([C@H]2C[C@H]3[C@@H]4CC[C@H]5C[C@H](OC(C)=O)[C@@H](N6CCCCC6)C[C@]5(C)[C@H]4CC[C@]3(C)[C@H]2OC(=O)CC)CCCCC1
RECORDED_MEASUREMENT: inactive
--
MOLECULE: CC(=O)c1c(C)c([N+](=O)[O-])c(C(C)(C)C)c([N+](=O)[O-])c1C
RECORDED_MEASUREMENT: inactive
--
MOLECULE: CCCCCCOC(=O)CCC
RECORDED_MEASUREMENT: inactive
--
MOLECULE: Cn1sccc1=O
RECORDED_MEASUREMENT: inactive
--
MOLECULE: CC(=O)NCCCS(=O)(=O)O
RECORDED_MEASUREMENT: inactive
--
MOLECULE: CC(C)=CCCC(C)CC=O (configuration not stated)
RECORDED_MEASUREMENT: inactive

Lab note: each molecule below needs its outcome filled in.
1. CCCCCOC(=O)COc1cc(N2C(=O)C3=C(CCCC3)C2=O)c(F)cc1Cl
2. CC(C)(C)C1CCCCC1O (configuration not stated)
3. CCCCOc1ccc(CC(=O)NO)cc1
4. CC(=O)/C=C/C1C(C)=CCCC1(C)C (configuration not stated)
5. CCN(CC)CCc1nc(-c2ccccc2)no1
6. CC(C)NCC(O)COc1ccc(CC(N)=O)cc1 (configuration not stated)
7. CN(c1nccc(=O)[nH]1)C1CCN(c2nc3ccccc3n2Cc2ccc(F)cc2)CC1

["inactive", "inactive", "inactive", "inactive", "inactive", "inactive", "inactive"]

Lab note: each molecule below needs its outcome filled in.
1. CC(C)c1ccccc1C(C)C
2. Cc1cccc(OCCOc2cccc(C)c2)c1
3. CCN(CC)C(C)=O
4. Cc1ccc(C(C)c2ccc(C)c(C)c2)cc1C
5. COc1cc(C(C)(C)C)c(O)c(C(C)(C)C)c1
6. CC(C)CC=O

1: inactive; 2: inactive; 3: inactive; 4: inactive; 5: inactive; 6: inactive

Lab note: each molecule below needs its outcome filled in.
1. Cc1cc(O)ccc1N
2. CCCCCCCCN(C)C
3. COCCOCCOCCOCCOC
4. CN(C)CCCOc1nn(Cc2ccccc2)c2ccccc12
5. C=CCCCCCC
6. CC(C)(C)C(=O)OCOP(=O)(COCCn1cnc2c(N)ncnc21)OCOC(=O)C(C)(C)C
7. CCCCOc1cc(C(=O)OCCN(CC)CC)ccc1N
8. Cn1c(NCCN(CCO)CCCc2ccc([N+](=O)[O-])cc2)cc(=O)n(C)c1=O

1: inactive; 2: inactive; 3: inactive; 4: inactive; 5: inactive; 6: inactive; 7: inactive; 8: inactive

Lab note: each molecule below needs its outcome filled in.
1. CCOc1nc2cccc(C(=O)O)c2n1Cc1ccc(-c2ccccc2-c2nn[nH]n2)cc1
2. O=C1[C@H](CC[C@H](O)c2ccc(F)cc2)[C@@H](c2ccc(O)cc2)N1c1ccc(F)cc1
3. c1ccc(CNCc2ccccc2)cc1
4. CC(=O)/C(C)=C/C1C(C)=CCCC1(C)C (configuration not stated)
5. COc1ccc(OC)c(OC)c1
6. ClC(Cl)(Cl)c1ccc(C(Cl)(Cl)Cl)cc1
7. Cc1ccc(C)o1
8. Cc1ccccc1N=Nc1ccc(N=Nc2c(O)ccc3ccccc23)c(C)c1

1: inactive; 2: inactive; 3: inactive; 4: inactive; 5: inactive; 6: inactive; 7: inactive; 8: inactive
